Source listed as ChEMBL document CHEMBL1123408.

# ASSAY_SYSTEM: Estrogen receptor (Mus musculus) (UniProt O08537+P19785)
# Sequence (O08537 whole entry, looked up): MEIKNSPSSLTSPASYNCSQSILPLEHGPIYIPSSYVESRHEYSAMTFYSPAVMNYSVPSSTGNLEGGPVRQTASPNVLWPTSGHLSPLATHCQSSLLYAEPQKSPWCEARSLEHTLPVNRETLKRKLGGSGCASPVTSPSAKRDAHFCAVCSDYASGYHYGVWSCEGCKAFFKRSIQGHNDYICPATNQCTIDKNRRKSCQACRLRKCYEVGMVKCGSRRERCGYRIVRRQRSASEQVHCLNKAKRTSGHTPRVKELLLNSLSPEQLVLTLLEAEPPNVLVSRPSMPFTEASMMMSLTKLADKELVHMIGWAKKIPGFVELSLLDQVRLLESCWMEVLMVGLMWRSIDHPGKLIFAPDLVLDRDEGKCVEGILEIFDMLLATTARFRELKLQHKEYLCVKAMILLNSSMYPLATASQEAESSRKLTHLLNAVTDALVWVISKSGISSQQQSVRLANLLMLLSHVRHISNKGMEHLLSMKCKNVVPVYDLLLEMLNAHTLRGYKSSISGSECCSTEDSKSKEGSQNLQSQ
# Sequence (P19785 whole entry, looked up): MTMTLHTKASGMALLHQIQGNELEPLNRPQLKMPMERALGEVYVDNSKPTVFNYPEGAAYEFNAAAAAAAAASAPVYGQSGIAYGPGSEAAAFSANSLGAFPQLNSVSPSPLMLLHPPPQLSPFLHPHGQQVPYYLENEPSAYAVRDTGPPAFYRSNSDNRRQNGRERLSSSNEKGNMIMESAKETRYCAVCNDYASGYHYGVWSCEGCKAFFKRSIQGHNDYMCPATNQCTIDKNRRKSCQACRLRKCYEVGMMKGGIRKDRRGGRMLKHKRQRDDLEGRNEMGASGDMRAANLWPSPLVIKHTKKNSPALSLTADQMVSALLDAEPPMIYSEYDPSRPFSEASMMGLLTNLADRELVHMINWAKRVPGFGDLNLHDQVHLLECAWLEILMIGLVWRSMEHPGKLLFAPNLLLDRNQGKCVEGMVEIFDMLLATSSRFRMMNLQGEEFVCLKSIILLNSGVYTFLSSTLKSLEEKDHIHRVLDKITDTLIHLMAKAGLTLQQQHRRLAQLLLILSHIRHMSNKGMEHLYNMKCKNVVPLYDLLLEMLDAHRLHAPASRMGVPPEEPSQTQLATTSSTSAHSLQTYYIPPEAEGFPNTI
# MEASUREMENT_NOTES: Uterotrophic effect in mice at 0 ug dose
# Format: functional, tissue-based
# Set-up: unit not given here
# EXPERIMENTAL_CONDITIONS: Uterus
READOUT_TYPE: Effect

Oc1cccc(/C(=C(/c2cccc(O)c2)C(F)(F)F)C(F)(F)F)c1 ... 11.1
Oc1ccc([C@H]([C@H](c2ccc(O)cc2)C(F)(F)F)C(F)(F)F)cc1 ... 10.8
C/C(=C(/C)c1cccc(O)c1)c1cccc(O)c1 ... 13.3
C/C(=C(/C)c1ccc(O)cc1)c1ccc(O)cc1 ... 16.7
C[C@H](c1cccc(O)c1)[C@@H](C)c1cccc(O)c1 ... 11.9
C[C@H](c1ccc(O)cc1)[C@@H](C)c1ccc(O)cc1 ... 11.8
Oc1cccc([C@H]([C@H](c2cccc(O)c2)C(F)(F)F)C(F)(F)F)c1 ... 10.8
Oc1ccc(/C(=C(/c2ccc(O)cc2)C(F)(F)F)C(F)(F)F)cc1 ... 13.7
